Hey, just so you know, these numbers are from patent US20160310583A1.

In this section we review reported MFI (solvent ratio) values for a set of binders.
# Test system: T1, HLA-A*24:02 (human)
# T1 construct: whole, on cells; MHC class I molecule, empty until peptide is added; detected with FITC anti-HLA-A24 antibody 17A10
# Test method notes: MHC class I stabilization on T2-A24 cells, flow cytometry, 100 ug/mL peptide
Measured metric: MFI (solvent ratio)

FLLVDCQKVM [FAM83B-derived peptide F231_10] : 1 ratio to solvent
KPLPESIPKL [FAM83B-derived peptide F593_10] : 3.5 ratio to solvent
SFNGTDNHIRF [FAM83B-derived peptide F466_11] : 1.7 ratio to solvent
SYMWSFEKAHL [FAM83B-derived peptide F245_11] : 2.9 ratio to solvent
